Recorded values, source PubChem BioAssay (NCI).

assay: NCI Yeast Anticancer Drug Screen. Data for the rad18 strain (AID 177); conditions: S. cerevisiae rad18 mutant growth inhibition; at 100.0 µM; hits give high values
This is part of a sample that, as a whole, favours compounds with a hit. Of some 79,000 tested, about 15% had one in any assay.
Would you please tag the item met when its growth inhibition is 80% or above, and not met when it is below?

In: State whether the measured growth inhibition reaches 80%, counting equality as reaching it, for `CCOC(=O)C#Cc1ccc([N+](=O)[O-])cc1`
Out: not met

In: State whether the measured growth inhibition reaches 80%, counting equality as reaching it, for `Clc1ccc(NCNC2Nc3ccccc3N2)cc1Cl`
Out: met

In: State whether the measured growth inhibition reaches 80%, counting equality as reaching it, for CC(=O)OCC1OC2OC(=O)NC2C(OC(C)=O)C1OC(C)=O (stereo unspecified)
Out: not met

In: State whether the measured growth inhibition reaches 80%, counting equality as reaching it, for `C[C](C)(C)[Ge]([O][Ge]([c]1ccccc1)[c]1ccccc1)([O][Ge]([c]1ccccc1)[c]1ccccc1)[C](C)(C)C`
Out: not met

In: State whether the measured growth inhibition reaches 80%, counting equality as reaching it, for `COc1cc(CSc2ccc(O)cc2)cc(O)c1O`
Out: not met

In: State whether the measured growth inhibition reaches 80%, counting equality as reaching it, for `Cc1cc2cc3cc(C)c(N)cc3nc2cc1N`
Out: met

In: State whether the measured growth inhibition reaches 80%, counting equality as reaching it, for `COc1cc(/C=C2\NC(=O)N(/C=C3\C(=O)Oc4ccccc4C3=O)C2=O)ccc1O`
Out: met

In: State whether the measured growth inhibition reaches 80%, counting equality as reaching it, for CC1CC(C)(C)CC(OCCN2CCCCC2)(c2ccccc2)C1 (stereo unspecified)
Out: met

In: State whether the measured growth inhibition reaches 80%, counting equality as reaching it, for `O=C(NO)Nc1cc(Cl)cc(Cl)c1`
Out: met
